Where do the numbers come from? From the kinase profiling compilation of Christmann-Franck et al. (2016).

Catalogue of kinase still bound, per cent of control readings, one per entry.
- target.or.test.system: UniProt P42680
- Sequence (P42680 whole entry, looked up): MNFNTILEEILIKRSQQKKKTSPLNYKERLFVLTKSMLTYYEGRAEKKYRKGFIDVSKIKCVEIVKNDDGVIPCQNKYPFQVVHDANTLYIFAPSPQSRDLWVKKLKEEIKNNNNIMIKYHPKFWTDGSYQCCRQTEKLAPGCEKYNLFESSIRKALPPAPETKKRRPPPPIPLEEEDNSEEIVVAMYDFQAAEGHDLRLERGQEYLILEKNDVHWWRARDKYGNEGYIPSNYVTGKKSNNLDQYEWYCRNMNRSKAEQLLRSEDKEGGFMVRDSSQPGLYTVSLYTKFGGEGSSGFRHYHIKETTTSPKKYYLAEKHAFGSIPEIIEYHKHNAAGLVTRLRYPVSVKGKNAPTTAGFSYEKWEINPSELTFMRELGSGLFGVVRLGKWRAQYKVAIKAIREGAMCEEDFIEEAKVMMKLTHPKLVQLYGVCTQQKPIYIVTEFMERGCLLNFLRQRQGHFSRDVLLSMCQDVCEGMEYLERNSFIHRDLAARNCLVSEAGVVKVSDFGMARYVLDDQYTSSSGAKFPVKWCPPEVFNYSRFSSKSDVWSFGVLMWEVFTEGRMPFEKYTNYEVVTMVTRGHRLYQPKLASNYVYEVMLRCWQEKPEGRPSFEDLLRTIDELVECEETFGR
- test.summary: KINOMEscan competition binding
- assay.conditions: compound 10.0 µM

item.smiles | target.or.test.system | kinase still bound, per cent of control (%)
N#CCNC(=O)c1ccc(-c2ccnc(Nc3ccc(N4CCOCC4)cc3)n2)cc1 | UniProt P42680 | 100
O=C1NC(=O)/C(=C/c2ccc3nccc(-c4ccncc4)c3c2)S1 | UniProt P42680 | 73
COc1ccc(N(C(=O)Oc2c(C)cccc2C)c2ccnc(Nc3ccc(N4CCN(C)CC4)cc3)n2)c(OC)c1 | UniProt P42680 | 3.7
COCC(=O)NC/C=C/c1ccc2ncnc(Nc3ccc(Oc4ccc(C)nc4)c(C)c3)c2c1 | UniProt P42680 | 73
CCN1CCN(C(=O)Cc2ccc(Nc3ncc(F)c(Nc4ccc(C(=O)Nc5ccccc5Cl)cc4)n3)cc2)CC1 | UniProt P42680 | 42
Cc1n[nH]c2ccc(-c3cncc(OC[C@@H](N)Cc4c[nH]c5ccccc45)c3)cc12 | UniProt P42680 | 100
CNC(=O)c1cc(Oc2ccc(NC(=O)Nc3ccc(Cl)c(C(F)(F)F)c3)cc2)ccn1 | UniProt P42680 | 100
CCN(CC)CCCCNc1ncc2cc(-c3cc(OC)cc(OC)c3)c(NC(=O)NC(C)(C)C)nc2n1 | UniProt P42680 | 100
NC(=O)Nc1cc(-c2cccc(F)c2)sc1C(=O)N[C@@H]1CCCNC1 | UniProt P42680 | 0.4
O=c1cc(N2CCOCC2)oc2c(-c3cccc4c3sc3ccccc34)cccc12 | UniProt P42680 | 89
CCN(CC)CCCCNc1ncc2c(n1)N(C)C(=O)N(c1c(Cl)c(OC)cc(OC)c1Cl)C2 | UniProt P42680 | 100
C[C@@H](Oc1cc(-c2cnn(C3CCNCC3)c2)cnc1N)c1c(Cl)ccc(F)c1Cl | UniProt P42680 | 100
COc1cc(N2CCN(C)CC2)ccc1Nc1ncc2c(n1)N(C)c1ccccc1C(=O)N2C | UniProt P42680 | 100
CNC(=O)c1ccc(Nc2cc(Nc3ccccc3S(=O)(=O)C(C)C)c3cc[nH]c3n2)nc1 | UniProt P42680 | 2.6
COc1cc2ncnc(-n3nc(-c4ccccn4)nc3N)c2cc1OC | UniProt P42680 | 100
CS(=O)(=O)N1CCN(Cc2cc3nc(-c4cccc5[nH]ncc45)nc(N4CCOCC4)c3s2)CC1 | UniProt P42680 | 100
C=CC(=O)Nc1ccc(CN(C(=O)Nc2c(Cl)c(OC)cc(OC)c2Cl)c2cc(Nc3ccc(N4CCN(C)CC4)cc3)ncn2)cc1 | UniProt P42680 | 7.2
CN(C)C/C=C/C(=O)Nc1ccc(C(=O)Nc2cccc(Nc3nccc(-c4cccnc4)n3)c2)cc1 | UniProt P42680 | 100
O=C(Nc1cccc(Nc2ncc(Br)c(NCCc3cnc[nH]3)n2)c1)N1CCCC1 | UniProt P42680 | 47

----------
Catalogue of kinase still bound, per cent of control readings, one per entry.
- target.or.test.system: PAK7 (human) (UniProt Q9P286)
- Sequence (Q9P286 whole entry, looked up): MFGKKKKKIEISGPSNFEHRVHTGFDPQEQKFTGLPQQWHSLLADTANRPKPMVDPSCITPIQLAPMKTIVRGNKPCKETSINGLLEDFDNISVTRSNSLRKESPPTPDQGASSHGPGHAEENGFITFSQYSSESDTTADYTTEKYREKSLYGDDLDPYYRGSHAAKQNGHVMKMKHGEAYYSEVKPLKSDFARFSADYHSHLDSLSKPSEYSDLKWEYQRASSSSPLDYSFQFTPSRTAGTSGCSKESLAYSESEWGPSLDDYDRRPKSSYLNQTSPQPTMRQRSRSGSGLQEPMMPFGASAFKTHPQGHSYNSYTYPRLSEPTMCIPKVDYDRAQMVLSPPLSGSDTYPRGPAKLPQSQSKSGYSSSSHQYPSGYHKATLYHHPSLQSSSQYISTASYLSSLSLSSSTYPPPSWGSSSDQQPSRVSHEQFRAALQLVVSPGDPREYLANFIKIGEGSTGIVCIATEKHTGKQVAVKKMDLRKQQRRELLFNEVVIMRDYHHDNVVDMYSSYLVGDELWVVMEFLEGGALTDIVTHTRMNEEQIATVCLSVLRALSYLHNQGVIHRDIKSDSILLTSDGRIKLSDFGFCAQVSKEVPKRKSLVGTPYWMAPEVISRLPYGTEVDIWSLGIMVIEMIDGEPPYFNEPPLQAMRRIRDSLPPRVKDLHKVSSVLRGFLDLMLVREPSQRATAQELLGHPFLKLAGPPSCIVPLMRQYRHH
- test.summary: KINOMEscan competition binding
- assay.conditions: compound 10.0 µM

item.smiles | kinase still bound, per cent of control (%)
COc1cc2ncn(-c3cc(OCc4ccccc4C(F)(F)F)c(C(N)=O)s3)c2cc1OC | 98
CNC(=O)c1cc(Oc2ccc(NC(=O)Nc3ccc(Cl)c(C(F)(F)F)c3)cc2)ccn1 | 100
CCN(CC)CCCCNc1ncc2cc(-c3cc(OC)cc(OC)c3)c(NC(=O)NC(C)(C)C)nc2n1 | 100
N#CCNC(=O)c1ccc(-c2ccnc(Nc3ccc(N4CCOCC4)cc3)n2)cc1 | 56
COc1cc2ncnc(-n3nc(-c4ccccn4)nc3N)c2cc1OC | 63
NC(=O)Nc1cc(-c2cccc(F)c2)sc1C(=O)N[C@@H]1CCCNC1 | 0
COc1cc(N2CCN(C)CC2)ccc1Nc1ncc2c(n1)N(C)c1ccccc1C(=O)N2C | 100
COCC(=O)NC/C=C/c1ccc2ncnc(Nc3ccc(Oc4ccc(C)nc4)c(C)c3)c2c1 | 87
O=c1cc(N2CCOCC2)oc2c(-c3cccc4c3sc3ccccc34)cccc12 | 96

----------
- target.or.test.system: UniProtKB Q9HBH9
- Sequence (Q9HBH9 whole entry, looked up): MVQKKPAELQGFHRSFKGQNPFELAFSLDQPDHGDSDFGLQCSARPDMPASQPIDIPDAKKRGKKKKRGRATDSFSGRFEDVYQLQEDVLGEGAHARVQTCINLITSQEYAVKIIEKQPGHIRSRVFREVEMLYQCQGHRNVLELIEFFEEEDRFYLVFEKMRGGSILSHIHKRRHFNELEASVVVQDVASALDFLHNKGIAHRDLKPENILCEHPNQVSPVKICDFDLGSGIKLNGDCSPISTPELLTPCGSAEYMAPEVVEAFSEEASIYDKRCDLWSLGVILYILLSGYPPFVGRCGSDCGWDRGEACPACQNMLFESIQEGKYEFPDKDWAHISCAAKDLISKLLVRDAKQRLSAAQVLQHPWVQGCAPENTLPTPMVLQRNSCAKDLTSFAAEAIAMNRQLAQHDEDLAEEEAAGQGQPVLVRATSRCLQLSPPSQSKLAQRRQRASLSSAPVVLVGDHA
- test.summary: KINOMEscan competition binding
- assay.conditions: compound 10.0 µM
quantity: kinase still bound, per cent of control (%)

item.smiles | measured.number
COc1cc2ncn(-c3cc(OCc4ccccc4C(F)(F)F)c(C(N)=O)s3)c2cc1OC | 76
Cc1n[nH]c2ccc(-c3cncc(OC[C@@H](N)Cc4c[nH]c5ccccc45)c3)cc12 | 13
O=C1NC(=O)/C(=C/c2ccc3nccc(-c4ccncc4)c3c2)S1 | 49
COc1cc(N2CCN(C)CC2)ccc1Nc1ncc2c(n1)N(C)c1ccccc1C(=O)N2C | 0
CNC(=O)c1ccc(Nc2cc(Nc3ccccc3S(=O)(=O)C(C)C)c3cc[nH]c3n2)nc1 | 100
CS(=O)(=O)N1CCN(Cc2cc3nc(-c4cccc5[nH]ncc45)nc(N4CCOCC4)c3s2)CC1 | 100
NC(=O)Nc1cc(-c2cccc(F)c2)sc1C(=O)N[C@@H]1CCCNC1 | 0
COc1cc(C(=O)N2CCC(N3CCN(C)CC3)CC2)ccc1Nc1ncc2c(n1)N(C)c1ccccc1C(=O)N2C | 1.2
COCC(=O)NC/C=C/c1ccc2ncnc(Nc3ccc(Oc4ccc(C)nc4)c(C)c3)c2c1 | 1.4

----------
Catalogue of kinase still bound, per cent of control readings, one per entry.
- target.or.test.system: CDKL3 (human)
- test.summary: KINOMEscan competition binding
- assay.conditions: compound 10.0 µM

item.smiles | kinase still bound, per cent of control (%)
COc1cc(N2CCN(C)CC2)ccc1Nc1ncc2c(n1)N(C)c1ccccc1C(=O)N2C | 100
CS(=O)(=O)N1CCN(Cc2cc3nc(-c4cccc5[nH]ncc45)nc(N4CCOCC4)c3s2)CC1 | 100
COc1cc(C(=O)N2CCC(N3CCN(C)CC3)CC2)ccc1Nc1ncc2c(n1)N(C)c1ccccc1C(=O)N2C | 83
CN(C)C/C=C/C(=O)Nc1ccc(C(=O)Nc2cccc(Nc3nccc(-c4cccnc4)n3)c2)cc1 | 20
O=c1cc(N2CCOCC2)oc2c(-c3cccc4c3sc3ccccc34)cccc12 | 100
CNC(=O)c1cc(Oc2ccc(NC(=O)Nc3ccc(Cl)c(C(F)(F)F)c3)cc2)ccn1 | 0.6
CCN1CCN(C(=O)Cc2ccc(Nc3ncc(F)c(Nc4ccc(C(=O)Nc5ccccc5Cl)cc4)n3)cc2)CC1 | 89
COc1ccc(N(C(=O)Oc2c(C)cccc2C)c2ccnc(Nc3ccc(N4CCN(C)CC4)cc3)n2)c(OC)c1 | 0.1
COc1cc2ncnc(-n3nc(-c4ccccn4)nc3N)c2cc1OC | 5.3
O=C1NC(=O)/C(=C/c2ccc3nccc(-c4ccncc4)c3c2)S1 | 99
NC(=O)Nc1cc(-c2cccc(F)c2)sc1C(=O)N[C@@H]1CCCNC1 | 100
CCN(CC)CCCCNc1ncc2c(n1)N(C)C(=O)N(c1c(Cl)c(OC)cc(OC)c1Cl)C2 | 100
C[C@@H](Oc1cc(-c2cnn(C3CCNCC3)c2)cnc1N)c1c(Cl)ccc(F)c1Cl | 68
N#CCNC(=O)c1ccc(-c2ccnc(Nc3ccc(N4CCOCC4)cc3)n2)cc1 | 60
O=C(Nc1cccc(Nc2ncc(Br)c(NCCc3cnc[nH]3)n2)c1)N1CCCC1 | 75
COCC(=O)NC/C=C/c1ccc2ncnc(Nc3ccc(Oc4ccc(C)nc4)c(C)c3)c2c1 | 100
C=CC(=O)Nc1cc(-n2c(=O)ccc3cnc4ccc(-c5cn[nH]c5)cc4c32)ccc1C | 33
COc1cc2ncn(-c3cc(OCc4ccccc4C(F)(F)F)c(C(N)=O)s3)c2cc1OC | 100

----------
- target.or.test.system: RPS6KA6 KD1 (human) (UniProt Q9UK32)
- Sequence (Q9UK32 whole entry, looked up): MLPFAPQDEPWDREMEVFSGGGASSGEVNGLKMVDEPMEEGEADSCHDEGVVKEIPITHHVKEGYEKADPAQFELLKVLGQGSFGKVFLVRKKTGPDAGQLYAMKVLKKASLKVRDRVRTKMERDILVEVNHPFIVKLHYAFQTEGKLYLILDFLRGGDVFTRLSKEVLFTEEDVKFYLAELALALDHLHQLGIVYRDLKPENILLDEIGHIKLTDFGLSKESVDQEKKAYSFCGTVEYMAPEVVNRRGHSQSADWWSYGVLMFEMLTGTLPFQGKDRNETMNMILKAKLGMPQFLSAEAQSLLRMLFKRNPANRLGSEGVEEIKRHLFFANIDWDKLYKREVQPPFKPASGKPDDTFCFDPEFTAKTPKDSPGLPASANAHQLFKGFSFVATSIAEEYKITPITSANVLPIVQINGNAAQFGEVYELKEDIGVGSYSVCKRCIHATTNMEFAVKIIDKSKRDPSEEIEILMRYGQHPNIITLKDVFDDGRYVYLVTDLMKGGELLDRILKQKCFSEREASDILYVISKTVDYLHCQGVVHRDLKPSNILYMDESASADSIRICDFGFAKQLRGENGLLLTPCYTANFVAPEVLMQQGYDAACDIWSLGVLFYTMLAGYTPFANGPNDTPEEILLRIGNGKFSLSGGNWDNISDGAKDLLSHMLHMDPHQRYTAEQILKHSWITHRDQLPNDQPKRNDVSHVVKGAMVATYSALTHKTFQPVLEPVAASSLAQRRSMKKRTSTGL
- test.summary: KINOMEscan competition binding
- assay.conditions: compound 10.0 µM
Lab note: anything with kinase still bound, per cent of control below 70% is marked Yes; values at 70% or higher are marked No.

item.smiles | group
COc1ccc(N(C(=O)Oc2c(C)cccc2C)c2ccnc(Nc3ccc(N4CCN(C)CC4)cc3)n2)c(OC)c1 | Yes
CCN1CCN(C(=O)Cc2ccc(Nc3ncc(F)c(Nc4ccc(C(=O)Nc5ccccc5Cl)cc4)n3)cc2)CC1 | Yes
CN(C)C/C=C/C(=O)Nc1ccc(C(=O)Nc2cccc(Nc3nccc(-c4cccnc4)n3)c2)cc1 | Yes
O=C1NC(=O)/C(=C/c2ccc3nccc(-c4ccncc4)c3c2)S1 | Yes
Cc1n[nH]c2ccc(-c3cncc(OC[C@@H](N)Cc4c[nH]c5ccccc45)c3)cc12 | No
COCC(=O)NC/C=C/c1ccc2ncnc(Nc3ccc(Oc4ccc(C)nc4)c(C)c3)c2c1 | No
N#CCNC(=O)c1ccc(-c2ccnc(Nc3ccc(N4CCOCC4)cc3)n2)cc1 | No
CS(=O)(=O)N1CCN(Cc2cc3nc(-c4cccc5[nH]ncc45)nc(N4CCOCC4)c3s2)CC1 | No
COc1cc2ncnc(-n3nc(-c4ccccn4)nc3N)c2cc1OC | Yes
COc1cc2ncn(-c3cc(OCc4ccccc4C(F)(F)F)c(C(N)=O)s3)c2cc1OC | Yes
COc1cc(C(=O)N2CCC(N3CCN(C)CC3)CC2)ccc1Nc1ncc2c(n1)N(C)c1ccccc1C(=O)N2C | No
CNC(=O)c1ccc(Nc2cc(Nc3ccccc3S(=O)(=O)C(C)C)c3cc[nH]c3n2)nc1 | Yes
COc1cc(N2CCN(C)CC2)ccc1Nc1ncc2c(n1)N(C)c1ccccc1C(=O)N2C | No
NC(=O)Nc1cc(-c2cccc(F)c2)sc1C(=O)N[C@@H]1CCCNC1 | Yes
C=CC(=O)Nc1cc(-n2c(=O)ccc3cnc4ccc(-c5cn[nH]c5)cc4c32)ccc1C | No
C=CC(=O)Nc1ccc(CN(C(=O)Nc2c(Cl)c(OC)cc(OC)c2Cl)c2cc(Nc3ccc(N4CCN(C)CC4)cc3)ncn2)cc1 | No
CCN(CC)CCCCNc1ncc2cc(-c3cc(OC)cc(OC)c3)c(NC(=O)NC(C)(C)C)nc2n1 | No
